meta.source: ChEMBL document CHEMBL3872225

- system: Cannabinoid receptor 2 (Homo sapiens)
- Sequence (P34972 whole entry): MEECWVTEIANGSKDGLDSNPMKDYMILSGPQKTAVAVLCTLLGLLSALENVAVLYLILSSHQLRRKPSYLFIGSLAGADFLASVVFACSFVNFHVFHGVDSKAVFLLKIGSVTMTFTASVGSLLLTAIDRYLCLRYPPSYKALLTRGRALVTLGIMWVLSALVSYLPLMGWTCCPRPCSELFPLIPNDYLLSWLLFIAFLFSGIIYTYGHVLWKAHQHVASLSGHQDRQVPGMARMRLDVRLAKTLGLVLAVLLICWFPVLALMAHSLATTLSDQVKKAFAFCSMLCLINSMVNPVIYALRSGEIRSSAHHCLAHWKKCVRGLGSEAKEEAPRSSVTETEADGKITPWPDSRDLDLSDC
- methodNotes: Displacement of [3H]CP-55940 from human recombinant CB2 receptor expressed in HEK293 cell membranes incubated for 1.5 hrs
pKi: −log10 of the molar value.
The threshold is inclusive: pKi of exactly 6 counts as Y; values below receive N.

smilesEntry	system	classAssignment
O=C(c1cccc2ccccc12)c1csc2ccccc12	Cannabinoid receptor 2 (Homo sapiens)	Y

Moving on to another compound below.
QUERY: Say whether CCCCc1nc2ccccc2n1C(=O)c1ccc(OC)cc1 shows pKi of 6 or more.
RESULT: N

* * *

- methodNotes: Cytotoxicity against African green monkey Vero cells assessed as reduction in cell viability measured after 72 hrs by MTT assay
- Type: toxicity, cell-based
- statedConditions: Chlorocebus sabaeus (African green monkey)
measuredMetric: IC50 at 72 h

QUERY: Item under review: CC(C)c1nc2ccccc2n1C(=O)c1cccc2ccccc12 . Reported IC50 at 72 h?
RESULT: 7.23 µM

QUERY: Next: O=C(c1cccc2ccccc12)n1c(C2CCCC2)nc2ccccc21
RESULT: > 10 µM

QUERY: Next: CCCCCc1sc2ccccc2c1C(=O)c1cccc2ccccc12
RESULT: > 10 µM

QUERY: Next: COc1ccc(-c2nc3ccccc3n2C(=O)c2cccc3ccccc23)cc1
RESULT: > 10 µM

QUERY: Next: COc1ccc(C(=O)n2c(-c3ccc(OC)cc3)nc3ccccc32)cc1
RESULT: > 10 µM

QUERY: Next: COc1ccc(C(=O)n2c(C3CCC3)nc3ccccc32)cc1
RESULT: > 10 µM
